Tested on: BDF1 mice, P388 leukemia ip, median survival T/C
PROTOCOL: NCI In Vivo Anticancer Drug Screen. Data for tumor model P388 Leukemia (intraperitoneal) in B6D2F1 (BDF1) mice
MEASUREMENT_SETUP: endpoint: median survival time; dose: 200.0 mg/kg/injection; schedule: Q04DX003 (ip); vehicle: saline; higher = longer survival
Toxic doses and inconclusive results are not listed.
ENDPOINT: T/C

Example entries and their recorded answers appear below.
SMILES_CODE	T/C
CCOC(=O)CCN1CCCC1	100 % of control
N#Cc1cnn2c(=O)[nH]cnc12	100 % of control

Consider now this further molecule.
Query: Param readout= T/C; system= BDF1 mice, P388 leukemia ip, median survival T/C; entry= O=C(Cn1ccc(=O)[nH]c1=O)N1CCC2(CC1)SSC1(CCN(C(=O)Cn3ccc(=O)[nH]c3=O)CC1)S2 ; returns value.
Response: 109 % of control

----------
System: BDF1 mice, P388 leukemia ip, median survival T/C
PROTOCOL: NCI In Vivo Anticancer Drug Screen. Data for tumor model P388 Leukemia (intraperitoneal) in B6D2F1 (BDF1) mice
MEASUREMENT_SETUP: endpoint: median survival time; dose: 200.0 mg/kg/injection; schedule: Q01DX009 (ip); vehicle: saline with Tween-80; higher = longer survival
Toxic doses and inconclusive results are not listed.
Listing of entries alongside the reported T/C.

Examples with answers:
COMPOUND	T/C
CCCCOCN(COCCCC)c1cccc(Cl)c1	117 % of control
O=C1CSC(C2CCCCC2)N1c1nccs1 (configuration not stated)	110 % of control
O=C(Nc1cccc(Cl)c1)ON1CCCCC1	100 % of control
Clc1ccc(-c2ccccc2)cc1Cl	118 % of control
Cn1nnc2nnc(-c3ccccc3)n21	103 % of control

Query: Suppose we examine the compound CCCCCC(O)CCCCC ; what T/C value has been reported?
Response: 95 % of control

Query: Look up T/C: NC1=NC(=O)NC1(c1ccccc1)c1ccccc1
Response: 90 % of control

----------
Test system: BDF1 mice, P388 leukemia ip, median survival T/C
PROTOCOL: NCI In Vivo Anticancer Drug Screen. Data for tumor model P388 Leukemia (intraperitoneal) in B6D2F1 (BDF1) mice
MEASUREMENT_SETUP: endpoint: median survival time; dose: 400.0 mg/kg/injection; schedule: Q04DX003 (ip); vehicle: saline with Tween-80; higher = longer survival
Toxic doses and inconclusive results are not listed. Non-standard residues stand in square brackets, D forms with d. Residues, ends and D or L forms follow the SMILES beside them. ξ: configuration not given here. *: point of attachment. ξF = NC(Cc1ccccc1)C(=O)O; For = O=C*
ENDPOINT: T/C

MOLECULE	T/C
COC(=O)C(CC(C)C)NC(=O)C(Cc1ccc(O)cc1)NC=O (stereo not drawn) (For-Tyr-Leu-OMe; configuration not given here)	112 % of control
CCC(C)(C)C(=O)O	100 % of control
NC(Cc1ccccc1)C(=O)NCC(=O)NCC(=O)O (stereo not drawn) (H-[ξF]-Gly-Gly-OH)	109 % of control

Consider now this further molecule.
Query: Value wanted: T/C (BDF1 mice, P388 leukemia ip, median survival T/C) of entry Clc1ccc2c(c1)C(Br)c1cc(Cl)cc(Cl)c1-2 (centres undefined)
Response: 87 % of control
